MEASUREMENT_TARGET: HLA-A*24:02
TEST_DESCRIPTION: IEDB peptide-MHC binding, purified MHC/direct/fluorescence; filed as Kd, often an IC50 or EC50 that approximates it; bounds were set here for any values at or beyond the usual limits of such assays
MEASUREMENT_CONDITIONS: source organism: Escherichia coli O157:H7
pKd: −log10 of the molar value.
RESULT_TYPE: pKd

Incoming: Please give the documented pKd of PILPKLFIL
Outgoing: ≤ 4.70

---

MEASUREMENT_TARGET: HLA-A*24:02
TEST_DESCRIPTION: IEDB peptide-MHC binding, purified MHC/competitive/radioactivity; filed as Kd, often an IC50 or EC50 that approximates it; bounds were set here for any values at or beyond the usual limits of such assays
MEASUREMENT_CONDITIONS: source organism: Dengue virus 4 Philippines/H241/1956
RESULT_TYPE: Kd (nM)
Numbers only, in nM.

1. IYVILTILTI    48.6

Incoming: Please give the documented Kd of PYLGKREDLW
Outgoing: 1620

---

MEASUREMENT_TARGET: HLA-B*40:01
TEST_DESCRIPTION: IEDB peptide-MHC binding, purified MHC/direct/fluorescence; filed as Kd, often an IC50 or EC50 that approximates it; bounds were set here for any values at or beyond the usual limits of such assays
MEASUREMENT_CONDITIONS: source organism: Influenza A virus (A/Turkey/MO/24093/99(H1N2))
RESULT_TYPE: Kd

Incoming: Please give the documented Kd of MQIRGFVYF
Outgoing: ≥ 20 µM

---

MEASUREMENT_TARGET: HLA-A*02:19
TEST_DESCRIPTION: IEDB peptide-MHC binding, purified MHC/competitive/fluorescence; filed as Kd, often an IC50 or EC50 that approximates it; bounds were set here for any values at or beyond the usual limits of such assays
MEASUREMENT_CONDITIONS: source organism: Entamoeba histolytica HM-1:IMSS
RESULT_TYPE: Kd

1. EVRKAIEFV    ≥ 20 µM

# input for lookup
Incoming: Please give the documented Kd of WAKLLKQKW
Outgoing: ≥ 20 µM

---

MEASUREMENT_TARGET: HLA-A*24:02
TEST_DESCRIPTION: IEDB peptide-MHC binding, purified MHC/competitive/radioactivity; filed as Kd, often an IC50 or EC50 that approximates it; bounds were set here for any values at or beyond the usual limits of such assays
MEASUREMENT_CONDITIONS: source organism: Dengue virus 1 Singapore/S275/1990
RESULT_TYPE: pKd
Give bare numbers, as −log10 of the molar value.

Incoming: Please give the documented pKd of VYPLSIPATL
Outgoing: 6.95

---

MEASUREMENT_TARGET: HLA-B*40:01
TEST_DESCRIPTION: IEDB peptide-MHC binding, purified MHC/competitive/fluorescence; filed as Kd, often an IC50 or EC50 that approximates it; bounds were set here for any values at or beyond the usual limits of such assays
MEASUREMENT_CONDITIONS: source organism: Vibrio cholerae
RESULT_TYPE: Kd

Incoming: # assay system HLA-B*40:01: give Kd of TRAPAPFPL
Outgoing: ≥ 5 µM

---

MEASUREMENT_TARGET: HLA-B*07:02
TEST_DESCRIPTION: IEDB peptide-MHC binding, purified MHC/competitive/fluorescence; filed as Kd, often an IC50 or EC50 that approximates it; bounds were set here for any values at or beyond the usual limits of such assays
MEASUREMENT_CONDITIONS: source organism: Entamoeba histolytica HM-1:IMSS
RESULT_TYPE: Kd

Incoming: Please give the documented Kd of EVRKAIEFV
Outgoing: ≥ 5 µM
